tested on: STIB719/ILRAD560 T. vivax (drug sensitive) strain; test: Ex vivo Alamar Blue 48 h drug sensitivity assay for T. vivax; format: cell-based; settings: Trypanosoma vivax, ex vivo bloodstream forms from mouse, 45 hrs + 3 hrs resazurin, read-out: IC50: I Hypoxanthine Incorporation T. vivax STIB 719/ILRA D 560, 2 d
pIC50: −log10 of the molar value.
PROPERTY: pIC50

Cc1c(C(=O)Nc2ccc3c(c2)B(O)OC3(C)C)nnn1-c1ccccc1 [Example 92]; 5.00 to 6.29
Cc1c(C(=O)Nc2ccc3c(c2)B(O)OC3)nnn1-c1ncccc1Cl [Example 82]; > 6.70

Please turn your attention to the following entry.
The recorded pIC50 for entry O=C(Nc1ccc2c(c1)B(O)OC2)c1cn(-c2ccc(Cl)cn2)nn1 [Example 59] equals 6.30 to 6.70
